Target Of Assay: brefeldin A-inhibited guanine nucleotide-exchange protein 3 (BIG3) (human, UniProt Q5TH69 1-2177)
Sequence (Q5TH69 whole entry): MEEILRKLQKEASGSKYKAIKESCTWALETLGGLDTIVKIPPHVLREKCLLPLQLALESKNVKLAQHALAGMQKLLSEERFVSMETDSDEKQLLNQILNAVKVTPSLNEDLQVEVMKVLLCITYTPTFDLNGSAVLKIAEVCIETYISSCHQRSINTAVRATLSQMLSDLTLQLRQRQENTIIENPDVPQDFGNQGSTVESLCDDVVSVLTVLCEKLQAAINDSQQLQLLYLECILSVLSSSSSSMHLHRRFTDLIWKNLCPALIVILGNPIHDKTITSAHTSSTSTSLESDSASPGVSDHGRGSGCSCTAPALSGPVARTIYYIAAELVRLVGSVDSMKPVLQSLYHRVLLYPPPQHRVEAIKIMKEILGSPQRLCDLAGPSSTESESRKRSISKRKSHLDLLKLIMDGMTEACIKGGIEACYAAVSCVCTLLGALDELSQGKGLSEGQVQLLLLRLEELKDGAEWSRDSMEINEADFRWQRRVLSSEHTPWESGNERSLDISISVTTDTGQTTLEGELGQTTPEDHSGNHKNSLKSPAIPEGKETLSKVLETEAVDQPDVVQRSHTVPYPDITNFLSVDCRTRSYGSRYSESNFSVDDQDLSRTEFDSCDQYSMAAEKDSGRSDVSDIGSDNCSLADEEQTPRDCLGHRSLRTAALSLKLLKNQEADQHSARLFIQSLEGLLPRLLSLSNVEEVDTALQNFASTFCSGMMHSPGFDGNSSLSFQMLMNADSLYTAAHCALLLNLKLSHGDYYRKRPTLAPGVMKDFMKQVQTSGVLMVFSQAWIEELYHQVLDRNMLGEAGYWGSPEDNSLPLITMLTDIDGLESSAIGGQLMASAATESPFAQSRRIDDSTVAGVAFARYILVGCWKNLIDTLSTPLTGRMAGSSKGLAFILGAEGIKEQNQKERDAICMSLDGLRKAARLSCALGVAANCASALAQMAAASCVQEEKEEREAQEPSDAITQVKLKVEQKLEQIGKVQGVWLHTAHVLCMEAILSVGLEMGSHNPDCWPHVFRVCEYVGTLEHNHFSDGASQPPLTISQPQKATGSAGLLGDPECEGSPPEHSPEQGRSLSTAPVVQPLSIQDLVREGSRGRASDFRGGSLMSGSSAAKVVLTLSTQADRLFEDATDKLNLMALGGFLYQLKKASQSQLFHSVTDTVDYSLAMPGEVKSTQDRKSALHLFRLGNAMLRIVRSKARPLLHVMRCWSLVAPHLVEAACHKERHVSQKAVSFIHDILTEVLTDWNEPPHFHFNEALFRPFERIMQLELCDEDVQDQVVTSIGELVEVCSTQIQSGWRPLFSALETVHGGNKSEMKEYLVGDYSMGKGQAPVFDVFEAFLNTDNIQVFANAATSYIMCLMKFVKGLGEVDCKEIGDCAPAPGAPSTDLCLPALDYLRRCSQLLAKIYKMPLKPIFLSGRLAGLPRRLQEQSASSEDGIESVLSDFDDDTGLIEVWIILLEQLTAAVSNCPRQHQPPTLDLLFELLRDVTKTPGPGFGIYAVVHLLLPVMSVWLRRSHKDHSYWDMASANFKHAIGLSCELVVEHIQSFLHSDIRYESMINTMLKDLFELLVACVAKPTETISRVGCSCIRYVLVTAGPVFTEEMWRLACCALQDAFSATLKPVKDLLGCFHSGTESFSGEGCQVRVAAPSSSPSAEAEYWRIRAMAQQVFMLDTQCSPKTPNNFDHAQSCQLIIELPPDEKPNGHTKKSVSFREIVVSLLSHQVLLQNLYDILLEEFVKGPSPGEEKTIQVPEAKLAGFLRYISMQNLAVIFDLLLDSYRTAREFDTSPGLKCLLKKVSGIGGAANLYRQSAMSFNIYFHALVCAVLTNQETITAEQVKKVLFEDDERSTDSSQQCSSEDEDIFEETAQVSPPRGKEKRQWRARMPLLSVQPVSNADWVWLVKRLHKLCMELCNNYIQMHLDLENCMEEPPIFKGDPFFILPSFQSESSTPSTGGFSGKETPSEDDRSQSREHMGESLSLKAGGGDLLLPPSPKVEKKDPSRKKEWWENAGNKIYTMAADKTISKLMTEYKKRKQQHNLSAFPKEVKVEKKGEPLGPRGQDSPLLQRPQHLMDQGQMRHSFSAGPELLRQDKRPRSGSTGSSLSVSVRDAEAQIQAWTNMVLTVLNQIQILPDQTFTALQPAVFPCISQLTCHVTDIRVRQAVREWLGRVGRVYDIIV
Protocol Notes: cell-based or functional assay
No end group written: not given here.
Endpoint Label: suppression ratio of estrogen-dependent growth of MCF-7, 10 µM, 24 h (%)
// note: answer is a bare numeric in %

Data request, read-out suppression ratio of estrogen-dependent growth of MCF-7, 10 µM, 24 h, for ESVFTVEGGHRAIFFNRIGG (not fully specified (C-terminus)) [PHB2 sequence-derived peptide No. 83]
61

Data request, read-out suppression ratio of estrogen-dependent growth of MCF-7, 10 µM, 24 h, for QYPIIADIRARPRKI (not fully specified (C-terminus)) [alanine-mutated PHB2 peptide No. 72]
37

Data request, read-out suppression ratio of estrogen-dependent growth of MCF-7, 10 µM, 24 h, for QYPIIYAIRARPRKI (not fully specified (C-terminus)) [alanine-mutated PHB2 peptide No. 73]
13

Data request, read-out suppression ratio of estrogen-dependent growth of MCF-7, 10 µM, 24 h, for RLPAGPRAMGTA (not fully specified (C-terminus)) [alanine-mutated PHB2 peptide No. 62]
8

Data request, read-out suppression ratio of estrogen-dependent growth of MCF-7, 10 µM, 24 h, for ESVFTVEGGHRAIRRRRRRRR-NH2 [PHB2 sequence-derived peptide No. 3 (38-50aa)]
17

Moving on to another binder below.
Data request, read-out suppression ratio of estrogen-dependent growth of MCF-7, 10 µM, 24 h, for RLPAAPRGMGTA (not fully specified (C-terminus)) [alanine-mutated PHB2 peptide No. 59]
19
